- tested.target: UniProtKB P34913
- Sequence (P34913 1-555): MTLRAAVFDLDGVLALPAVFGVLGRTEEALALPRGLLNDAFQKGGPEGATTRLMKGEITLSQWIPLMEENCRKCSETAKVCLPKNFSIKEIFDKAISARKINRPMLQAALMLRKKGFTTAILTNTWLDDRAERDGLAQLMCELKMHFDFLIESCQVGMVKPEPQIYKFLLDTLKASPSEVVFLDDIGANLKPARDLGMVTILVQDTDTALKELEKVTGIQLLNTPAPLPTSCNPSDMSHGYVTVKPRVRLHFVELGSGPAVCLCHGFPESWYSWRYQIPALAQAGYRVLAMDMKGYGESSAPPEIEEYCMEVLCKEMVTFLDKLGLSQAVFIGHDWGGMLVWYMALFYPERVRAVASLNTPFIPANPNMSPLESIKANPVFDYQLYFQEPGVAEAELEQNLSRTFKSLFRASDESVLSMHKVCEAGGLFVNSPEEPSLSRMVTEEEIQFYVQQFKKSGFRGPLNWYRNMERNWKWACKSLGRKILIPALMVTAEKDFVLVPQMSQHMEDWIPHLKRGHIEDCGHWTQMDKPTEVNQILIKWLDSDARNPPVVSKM
observable: IC50 (nM)

# molecule, tested.target, observable, numeric.readout
records = [
    ("O=C(CCCCCCNC(=O)[C@H]1CCCN(C(=O)c2ccc(NC(=O)Nc3ccc(Cl)c(F)c3)c(F)c2)C1)NO [Compound 28g]", "UniProtKB P34913", "IC50", 0.9),
    ("Cc1cc(NC(=O)Nc2ccc(C(=O)N3CCC[C@H](C(=O)NCCCCCCC(=O)NO)C3)cc2F)ccc1F [Compound 28i]", "UniProtKB P34913", "IC50", 1.2),
    ("Cc1ccc(NC(=O)Nc2ccc(C(=O)N3CCC[C@H](C(=O)NCCCCCCC(=O)NO)C3)cc2F)cc1F [Compound 28h]", "UniProtKB P34913", "IC50", 0.7),
    ("O=C(CCCCCCNC(=O)[C@H]1CCCN(C(=O)c2ccc(NC(=O)Nc3cc(F)cc(F)c3)c(F)c2)C1)NO [Compound 28j]", "UniProtKB P34913", "IC50", 3.6),
    ("O=C(CCCCCCNC(=O)[C@H]1CCCN(C(=O)c2ccc(NC(=O)Nc3ccc(F)c(Cl)c3)c(F)c2)C1)NO [Compound 28e]", "UniProtKB P34913", "IC50", 0.7),
]

* * *

Reported fraction unbound values follow for various compounds
- assay.summary: Plasma protein binding by equilibrium dialysis
- Type: in vitro ADME
- run.parameters: rat

# compound, fraction unbound
data = [
    ("O=C(CCCCCCNC(=O)[C@H]1CCCN(C(=O)c2ccc(NC(=O)Nc3ccc(Cl)c(F)c3)c(F)c2)C1)NO [Compound 28g]", 0.113),
    ("O=C(CCCCCCNC(=O)[C@H]1CCCN(C(=O)c2ccc(NC(=O)Nc3cc(F)cc(F)c3)c(F)c2)C1)NO [Compound 28j]", 0.119),
]

* * *

- assay.summary: In vitro metabolic stability in rat liver microsomes
- Format: in vitro ADME
- run.parameters: incubation 10 min, 37 °C, NADPH
Catalogue of compounds with associated metabolic stability in RLM, column 10
observable: metabolic stability in RLM, column 10

# compound, observable, numeric.readout
measured = [
    ("CC12CC3CC(C)(C1)CC(Nc1c(Nc4ccc(CN5CCC[C@H](C(=O)NCCCCCCC(=O)NO)C5)cc4F)c(=O)c1=O)(C3)C2 [Compound 34d]", "metabolic stability in RLM, column 10", 82.82),
    ("O=C(CCCCCCNC(=O)[C@H]1CCCN(C(=O)c2ccc(NC(=O)Nc3cc(F)cc(F)c3)c(F)c2)C1)NO [Compound 28j]", "metabolic stability in RLM, column 10", 85.62),
    ("C[C@]12C[C@@H]3C[C@](C)(C1)C[C@@](NC(=O)Nc1ccc(CN4CCC[C@H](C(=O)NCCCCCCC(=O)NO)C4)cc1F)(C3)C2 [Compound 16d]", "metabolic stability in RLM, column 10", 89.16),
    ("O=C(CCCCCCNC(=O)[C@H]1CCCN(C(=O)c2ccc(NC(=O)Nc3ccc(Cl)c(F)c3)c(F)c2)C1)NO [Compound 28g]", "metabolic stability in RLM, column 10", 91.61),
]

// provenance: paper PMC11412156
